experimental_system: PDE9 (Homo sapiens)
assay_procedure: PDE9 inhibition assay
Type: biochemical
test_conditions: 10 μM of inhibitor
inhibition at 10 µM for assorted compounds
Report the figure in % without appending any unit label.

Worked cases, answers included:
INSERT INTO results (compound, experimental_system, data_value) VALUES
  ('CCc1ncc2c(=O)n(C)c(Cc3ccc(-c4cccc(F)n4)cc3)cn12 [Example 23]', 'PDE9 (Homo sapiens)', 17),
  ('Cn1c(Cc2ccc(-c3cnccn3)cc2)cn2c(C3CCOCC3)ncc2c1=O [Example 24]', 'PDE9 (Homo sapiens)', -2),
  ('CC(C)c1ncc2c(=O)n(C)c(Cc3ccc(-c4cccc(F)n4)cc3)cn12 [Example 21]', 'PDE9 (Homo sapiens)', 13),
  ('Cn1c(Cc2ccc(-c3cccc(F)n3)cc2)cc2c(cnn2C2CCOCC2)c1=O [Example 5]', 'PDE9 (Homo sapiens)', 3);

# evaluate next
Req: Name the recorded inhibition at 10 µM of the item Cc1ccccc1-c1ccc(Cc2cn3c(C4CCOCC4)ncc3c(=O)n2C)cc1 [Example 18] in your answer.
Resp: 9

###

experimental_system: PDE9 (Homo sapiens, UniProt O76083)
Sequence (O76083 whole entry): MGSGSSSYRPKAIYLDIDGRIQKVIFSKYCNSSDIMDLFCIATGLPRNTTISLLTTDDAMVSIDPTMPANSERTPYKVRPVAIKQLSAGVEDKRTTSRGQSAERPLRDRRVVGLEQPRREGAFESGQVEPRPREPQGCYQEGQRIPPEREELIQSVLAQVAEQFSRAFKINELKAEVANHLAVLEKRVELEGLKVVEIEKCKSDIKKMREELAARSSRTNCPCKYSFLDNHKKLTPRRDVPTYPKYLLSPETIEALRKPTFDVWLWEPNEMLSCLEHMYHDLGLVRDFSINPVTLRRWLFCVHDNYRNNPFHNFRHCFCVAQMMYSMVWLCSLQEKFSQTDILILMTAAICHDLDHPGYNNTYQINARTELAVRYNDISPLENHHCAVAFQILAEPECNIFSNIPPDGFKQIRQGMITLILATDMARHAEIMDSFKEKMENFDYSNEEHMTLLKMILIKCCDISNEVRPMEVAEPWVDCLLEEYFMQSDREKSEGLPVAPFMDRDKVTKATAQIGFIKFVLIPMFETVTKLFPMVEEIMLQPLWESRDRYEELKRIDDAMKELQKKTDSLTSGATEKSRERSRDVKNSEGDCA
assay_procedure: PDE9 inhibition assay
Assay type: biochemical
test_conditions: 10 μM of inhibitor
measure_name: inhibition at 10 µM (%)
Provide only the numeric value, understood in %.

INSERT INTO assay_data (compound, value_units, data_value) VALUES
  ('Cc1cccc(-c2ccc(Cc3nc4c(cnn4C4CCOCC4)c(=O)n3C)cc2)n1 [Example 3]', '%', 25),
  ('Cn1c(Cc2ccc(-c3ccccn3)cc2)cc2c(cnn2C2CCOCC2)c1=O [Example 6]', '%', 4),
  ('Cc1cccc(-c2ccc(Cc3cn4c(C5CCOCC5)ncc4c(=O)n3C)cc2)n1 [Example 13]', '%', 18);

Then there is this compound:
Req: Look up and state reported inhibition at 10 µM for COc1ccc(Cn2c(CN3CCN(c4ccccc4)CC3)cn3c(C4CCOCC4)ncc3c2=O)cc1 [Example 8]
Resp: 11

###

List of pIC50 values.
experimental_system: UniProt Q01064
Sequence (Q01064 whole entry): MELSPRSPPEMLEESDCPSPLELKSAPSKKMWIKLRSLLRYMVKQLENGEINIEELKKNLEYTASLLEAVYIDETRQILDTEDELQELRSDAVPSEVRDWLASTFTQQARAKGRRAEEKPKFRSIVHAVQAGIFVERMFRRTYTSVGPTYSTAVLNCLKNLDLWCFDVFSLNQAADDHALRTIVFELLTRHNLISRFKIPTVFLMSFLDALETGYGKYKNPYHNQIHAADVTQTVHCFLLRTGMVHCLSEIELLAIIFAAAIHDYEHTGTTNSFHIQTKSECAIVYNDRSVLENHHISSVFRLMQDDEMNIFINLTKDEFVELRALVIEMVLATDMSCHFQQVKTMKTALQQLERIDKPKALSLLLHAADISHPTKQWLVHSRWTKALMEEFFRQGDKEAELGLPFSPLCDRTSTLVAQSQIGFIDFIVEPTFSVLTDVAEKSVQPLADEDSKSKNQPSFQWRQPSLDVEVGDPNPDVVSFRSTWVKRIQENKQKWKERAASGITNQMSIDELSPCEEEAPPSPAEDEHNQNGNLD
Lab note: report pIC50 as minus log10 of the concentration in molar units, number only.

Req: State, in one line, measured pIC50 of Cn1c(Cc2ccc(-c3cccc(F)n3)cc2)cc2c(cnn2C2CCOCC2)c1=O
Resp: 7.70

Req: Specify pIC50 for Cc1ccccc1-c1ccc(Cc2cn3c(C4CCOCC4)ncc3c(=O)n2C)cc1 and stop.
Resp: 7.64

Req: Name the recorded pIC50 of the molecule listed here: Cn1c(Cc2ccc(-c3cnccn3)cc2)cn2c(C3CCOCC3)ncc2c1=O
Resp: 7.52

Req: Read the entry Cn1cnc(-c2ccc(Cc3cn4c(C5CCOCC5)ncc4c(=O)n3C)cc2)c1 and write its reported pIC50.
Resp: 7.77

Req: Kindly indicate its recorded pIC50. Item: O=c1[nH]c(Cc2ccc(-c3ccccn3)cc2)cn2c(C3CCOCC3)ncc12
Resp: 8.22

Req: Return value of pIC50 for input Cn1c(Cc2ccc(-c3cccc(F)n3)cc2)cn2c(C3CCOCC3)ncc2c1=O , no commentary.
Resp: 8.28

###

experimental_system: PDE1A (Homo sapiens, UniProt P54750)
Sequence (P54750 whole entry): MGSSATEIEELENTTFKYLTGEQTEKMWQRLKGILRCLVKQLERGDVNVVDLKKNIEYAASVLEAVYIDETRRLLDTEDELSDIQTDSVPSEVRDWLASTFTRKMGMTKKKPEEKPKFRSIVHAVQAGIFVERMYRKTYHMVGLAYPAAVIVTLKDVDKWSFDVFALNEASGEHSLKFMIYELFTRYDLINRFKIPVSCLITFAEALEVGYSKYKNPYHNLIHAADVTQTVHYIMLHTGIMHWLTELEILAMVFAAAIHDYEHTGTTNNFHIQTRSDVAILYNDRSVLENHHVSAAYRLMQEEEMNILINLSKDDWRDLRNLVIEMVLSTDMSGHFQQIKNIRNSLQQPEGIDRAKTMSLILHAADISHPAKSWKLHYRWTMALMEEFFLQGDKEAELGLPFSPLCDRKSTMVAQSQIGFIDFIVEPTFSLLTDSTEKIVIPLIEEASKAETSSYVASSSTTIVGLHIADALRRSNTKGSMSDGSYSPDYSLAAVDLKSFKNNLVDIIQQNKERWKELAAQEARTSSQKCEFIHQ
Below is a list of entries, each paired with its recorded IC50 value.
Numbers only; they are read as nM.

INSERT INTO assay_data (molecule, measure_name, data_value) VALUES
  ('CC1OCCC1c1ncc2c(=O)n(C)c(Cc3ccc(-c4cccc(F)n4)cc3)cn12 (single isomer, unassigned; isomer 3) [Example 31]', 'IC50', 18),
  ('Cc1cccc(-c2ccc(Cc3cn4c(C5CCOCC5)ncc4c(=O)n3C)cc2)n1', 'IC50', 81);

Req: Under PDE1A (Homo sapiens, UniProt P54750): report IC50 of Cc1cccc(-c2ccc(Cc3cc4c(cnn4C4CCOCC4)c(=O)n3C)cc2)n1 .
Resp: 150

Req: Determine reported IC50 for COc1ccc(Cn2c(CN3CCN(c4ccccn4)CC3)cn3c(C4CCOCC4)ncc3c2=O)cc1 ; test system: PDE1A (Homo sapiens, UniProt P54750).
Resp: 88
